Target: human type 1 glycine transporter (GlyT1) (Homo sapiens)
Construct: T98G cells (glioma cells) expressing human type 1 glycine transporter (GlyT1) were used; endogenous in cells; host or cells: T98G cells (human glioma cells)
Assay: Glycine uptake inhibition experiment ([3H] glycine uptake in T98G cells expressing GlyT1)
Assay type: cell-based
Conditions: glycine uptake inhibition
pIC50: −log10 of the molar value.
Classify by measured pIC50: y if it is equal to or exceeds 7, n if it is smaller.

[[record]]
testsmiles = "Cc1nc2ccccc2nc1CN1C(=O)C(F)(F)c2c([C@H](C)O)cccc21"
systemtested = "human type 1 glycine transporter (GlyT1) (Homo sapiens)"
category = "y"

[[record]]
testsmiles = "C[C@H](O)c1cccc2c1C(F)(F)C(=O)N2Cc1ccc(Cl)cn1"
systemtested = "human type 1 glycine transporter (GlyT1) (Homo sapiens)"
category = "y"

[[record]]
testsmiles = "C[C@H](O)c1cccc2c1C(F)(F)C(=O)N2Cc1ccc(C(F)F)nc1"
systemtested = "human type 1 glycine transporter (GlyT1) (Homo sapiens)"
category = "n"

[[record]]
testsmiles = "C[C@H](O)c1cccc2c1C(F)(F)C(=O)N2Cc1ccsc1"
systemtested = "human type 1 glycine transporter (GlyT1) (Homo sapiens)"
category = "y"

[[record]]
testsmiles = "O=C1N(Cc2cncc(Cl)c2)c2ccc(Cl)c([C@@H](O)C(F)(F)F)c2C1(F)F"
systemtested = "human type 1 glycine transporter (GlyT1) (Homo sapiens)"
category = "n"


Moving on to the next molecule.
Test whether the molecule `C[C@H](O)c1cccc2c1C(F)(F)C(=O)N2Cc1cccc(C(F)F)n1` records pIC50 of 7 or higher.
y
